- Target or test system: Cannabinoid receptor 2 (Homo sapiens, UniProt P34972)
- Sequence (P34972 whole entry): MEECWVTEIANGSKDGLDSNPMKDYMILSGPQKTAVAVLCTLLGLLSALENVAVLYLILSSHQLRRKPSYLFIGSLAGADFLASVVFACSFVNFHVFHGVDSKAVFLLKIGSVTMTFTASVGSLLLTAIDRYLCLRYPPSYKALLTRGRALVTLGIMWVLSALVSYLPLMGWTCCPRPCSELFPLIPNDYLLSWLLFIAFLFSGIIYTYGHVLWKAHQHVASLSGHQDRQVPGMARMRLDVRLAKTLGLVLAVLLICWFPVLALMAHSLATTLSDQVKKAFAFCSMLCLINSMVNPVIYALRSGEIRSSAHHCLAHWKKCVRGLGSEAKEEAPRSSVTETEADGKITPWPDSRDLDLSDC
- Procedure summary: Inhibition of [3H]CP-55940 binding to human recombinant CB2 receptor in CHO cells
Each record is given 1 (yes) if its reported IC50 is strictly below 200 nM. Records at or above 200 nM are given 0 (no).

Compound	Class label
C[C@H](NC(=O)C(C)(C)Oc1ccc(Cl)cn1)[C@@H](Cc1ccc(Cl)cc1)c1ccccc1	1 (yes)

I'd appreciate it if you could check whether C[C@H](NC(=O)C(C)(C)Oc1cccc(F)c1)[C@@H](Cc1ccc(Cl)cc1)c1ccccc1 has IC50 smaller than 200 nM.
0 (no)

I'd appreciate it if you could check whether C[C@H](NC(=O)C(C)(C)Oc1ccccn1)[C@@H](Cc1ccc(Cl)cc1)c1ccccc1 has IC50 smaller than 200 nM.
1 (yes)

I'd appreciate it if you could check whether C[C@H](NC(=O)C(C)(C)Oc1ccc(C(F)(F)F)cn1)[C@@H](Cc1ccc(Cl)cc1)c1ccccc1 has IC50 smaller than 200 nM.
1 (yes)

###

- Target or test system: UniProt:P34972
- Procedure summary: Inhibition of [3H]CP-55940 binding to human recombinant CB2 receptor in CHO cells
Reported metric: IC50 (nM)
Give the quantity in nM, number only.

Compound	IC50 / nM
CC(NC(=O)C(C)(C)Oc1ccc(Cl)cc1)C(Cc1ccc(Cl)cc1)c1ccccc1 (stereo unspecified)	610
CC(NC(=O)C(C)(C)Oc1ccc(Cl)cc1)C(Cc1ccc(Cl)cc1)c1ccc(Cl)cc1 (stereo unspecified)	1100
C[C@H](NC(=O)C(C)(C)Oc1cc(F)cc(F)c1)[C@@H](Cc1ccc(Cl)cc1)c1ccccc1	200
C[C@H](NC(=O)C(C)(C)Oc1ccccc1)[C@@H](Cc1ccc(Cl)cc1)c1ccccc1	450

Please look at the following compound next.
Record C[C@H](NC(=O)C(C)(C)Oc1cccc(Cl)c1)[C@@H](Cc1ccc(Cl)cc1)c1ccccc1 : what is its IC50 with UniProt:P34972?
190
